Experiment: gradient 5% acetonitrile 3 min, to 50% in 2 min, to 85% in 15 min, held 3 min, 100 µL/min
Conditions: column: Zorbax Extend-C18 2.1 x 50 mm; eluents: water / acetonitrile, 0.1% formic acid
recorded.metric: RP-LC retention time (s)

>>> df
                              record_smiles       recorded_metric  unit_tag  value_observed
0  CCc1noc(-c2ccnc(-n3ncc(C(=O)NCC4CC4)c3C)c2)n1  RP-LC retention time         s            1110
1          CCCCNC(=O)c1nccnc1NC(=O)c1ccccc1  RP-LC retention time         s             903
2  COc1cccc(CNC2=NCCNC23CCN(S(=O)(=O)c2ccc(C(C)(C)C)cc2)CC3)c1  RP-LC retention time         s             837

----------
Assay: gradient 5% acetonitrile 3 min, to 50% in 2 min, to 85% in 15 min, held 3 min, 100 µL/min
Settings: column: Zorbax Extend-C18 2.1 x 50 mm; eluents: water / acetonitrile, 0.1% formic acid
recorded.metric: RP-LC retention time (s)

>>> df
                                   compound  value_observed
0  CN(CCNC(=O)c1ccc(-c2ccnc(N3CCCC3)n2)cc1)C1CCCCC1             611
1  Cn1c(CN2CCN(C(=O)NC(c3ccccc3)c3ccccc3)CC2)nc2ccccc21             620
2  CC(=O)N1CCCc2cc(S(=O)(=O)N3CCC(C(=O)NCc4ccccn4)CC3)ccc21             607
3  CCOC(=O)c1ccc(NC(=O)c2cc3sc(Cl)cc3n2CC)cc1            1260
4  C[C@@H]1CCC2(NC1)O[C@H]1C[C@H]3[C@@H]4CC=C5C[C@@H](O)CC[C@]5(C)[C@H]4CC[C@]3(C)[C@H]1[C@H]2C (stereo not given in full)             757
5  CCC1CCCCN1C(=O)c1cnc2nc(C)ccc2c1Nc1ccc(CC(=O)O)cc1 (stereo not given)             598

A: CC(C)n1cc(S(=O)(=O)Nc2cc(F)cc(F)c2)c2cccnc21
B: O=C(NCCCn1nc(-c2ccncc2)ccc1=O)c1ccc2c(c1)OCO2
Larger number for RP-LC retention time: A , or B ? Please reply using the label of the selected record.
A
(A: 936 s, B: 555 s)

----------
Assay: gradient 5% acetonitrile 3 min, to 50% in 2 min, to 85% in 15 min, held 3 min, 100 µL/min
Details: column: Zorbax Extend-C18 2.1 x 50 mm; eluents: water / acetonitrile, 0.1% formic acid
recorded.metric: RP-LC retention time (s)

>>> print(df.to_string())
                                    molecule       recorded_metric  unit_tag  value_observed
 0  O=C(c1ccoc1)N1CCCC(c2ccnc(-c3ccccc3)n2)C1 (stereo not drawn)  RP-LC retention time         s             892
 1  Cc1nn(-c2ccccc2)c(C)c1CCc1nn2c(-c3ccccc3F)nnc2s1  RP-LC retention time         s             865
 2  COCCn1cc2c3c(cccc31)CN(C(=O)NCc1ccc(OC)cc1)CC2  RP-LC retention time         s             822
 3      COC(=O)C1=CCCCCC(N2CCOCC2)=C1C(=O)OC  RP-LC retention time         s             684
 4   CS(=O)(=O)N1CC(n2cc(C(=O)NCC3CC3)nn2)C1  RP-LC retention time         s             645
 5  CC(C)(C)NC(=O)N1CCC(CNC(=O)C(=O)NCCC2=CCCCC2)CC1  RP-LC retention time         s             818
 6  CC(C)Cn1c(=O)c(C(=O)NCCc2cccnc2)nc2cccnc21  RP-LC retention time         s             635
 7  CCC(CC)C(=O)N1CCc2c(c(-c3nnc(-c4ccccc4Cl)o3)nn2C)C1  RP-LC retention time         s             899
 8  O=C(C1=CN(c2ccc(F)c(F)c2)c2ccccc2S1(=O)=O)N1CCOCC1  RP-LC retention time         s             751
 9  COc1cc(C(=O)NC(CC(C)C)C(=O)Nc2nc3ccccc3[nH]2)cc(OC)c1OC (stereo not drawn)  RP-LC retention time         s             733
10           CN(CC1(C)CCOCC1)C(=O)c1ccccc1Br  RP-LC retention time         s             806
11    CCn1c(CCNC(=O)c2ccc(OC)cc2C)nc2cccnc21  RP-LC retention time         s             733
12  COc1cc(OC)c(OC)cc1CC1C(=O)Nc2ccccc21 (stereo not drawn)  RP-LC retention time         s             770

----------
Assay: gradient 5% acetonitrile 3 min, to 50% in 2 min, to 85% in 15 min, held 3 min, 100 µL/min
Settings: column: Zorbax Extend-C18 2.1 x 50 mm; eluents: water / acetonitrile, 0.1% formic acid
recorded.metric: RP-LC retention time (s)

>>> print(df.to_string())
                                   compound       recorded_metric  value_observed
0              C=C(C)[C@@H]1CC=C(C(=O)O)CC1  RP-LC retention time             875
1  CCN(CCNC(=O)c1cc(=O)n(C)c2c1c(=O)n(C)c(=O)n2C)Cc1ccccc1  RP-LC retention time             646
2  Cc1ccc(CNC(=O)C2(C)CCCN(C(=O)NCCC(C)C)C2)cc1 (stereo unspecified)  RP-LC retention time             910
3  O=C(c1cccc(Br)c1)N1CCC2(C1)C(=O)Nc1ccccc12 (stereo unspecified)  RP-LC retention time             773
4  Cc1ccc2nc(NC(=O)CSc3ccc(-n4cccn4)nn3)sc2c1  RP-LC retention time             844

P: Cc1cc(C(=O)NCC23CCCC=C2NC(=O)CC3)n(C)n1 (stereo unspecified)
Q: O=C1COc2ccccc2N1Cc1nc(-c2ccccc2)no1
Kindly compare P with Q and tell me which has the lower RP-LC retention time figure. Refer to your chosen item by its label in the answer.
P
(P: 636 s, Q: 971 s)

I: CCCCN1CCN(C(=O)c2nc(N3CCSCC3)c3c(C)cc(C)nc3n2)CC1
II: CC1(C)c2ccccc2-c2nc3ccccc3cc2C1O (stereo unspecified)
Field: lower recorded RP-LC retention time (choose I or II ) Please identify the chosen entry by its label.
I

----------
Assay: gradient 5% acetonitrile 3 min, to 50% in 2 min, to 85% in 15 min, held 3 min, 100 µL/min
Details: column: Zorbax Extend-C18 2.1 x 50 mm; eluents: water / acetonitrile, 0.1% formic acid
recorded.metric: RP-LC retention time (s)

// known answers, use as guide
>>> df
                                   compound       recorded_metric  value_observed
0  COCc1nncn1C1CCN(C(=O)C2(c3ccccc3)CC2)CC1  RP-LC retention time             650
1  CCOC(=O)c1nc(N2CCN(c3ccccn3)CC2)c2ccccc2n1  RP-LC retention time             580
2  Cc1ccc(CNC(=O)C2CCN(c3nnc(C)c4c(C)n(-c5ccccc5)nc34)CC2)o1  RP-LC retention time             710
3  NC(=O)C1CCN(c2nc3ccccc3nc2S(=O)(=O)Cc2ccc(Cl)cc2)CC1  RP-LC retention time             876
4  COc1ccc(NC(=O)c2nc(N3CCC(C)CC3)c3cnn(C)c3n2)cc1  RP-LC retention time             966

P: CN1C(=O)c2cc(C(=O)N3CCN(c4ccccc4F)CC3)nn2CC1(C)C(=O)NC1CCCC1 (stereo not given)
Q: Cc1ccc(C)c(N2CCN(C(=O)c3ccc4c(c3)N(C)C(=O)C3CCCCN43)CC2)c1 (stereo not given)
Which value of RP-LC retention time is smaller, the one for P or the one for Q ? Reply with the label of the item you choose.
P
(P: 801 s, Q: 1180 s)

----------
Test: gradient 5% acetonitrile 3 min, to 50% in 2 min, to 85% in 15 min, held 3 min, 100 µL/min
Conditions: column: Zorbax Extend-C18 2.1 x 50 mm; eluents: water / acetonitrile, 0.1% formic acid
recorded.metric: RP-LC retention time (s)

Worked set:
>>> print(df.to_string())
                                   compound  value_observed
0  Cc1ccc(-n2ccc(=O)c(-c3nc(-c4ccc(Br)cc4)no3)n2)cc1            1030
1  O=C(c1ccc(N2CCCCC2)c(S(=O)(=O)N2CCCCC2)c1)N1CCN(c2ccccn2)CC1             813
2  O=C(Nc1nnc(C(F)(F)F)s1)C1CCN(C(=O)c2ccc(F)cc2)CC1             815
3  CC1CCN(C(=O)c2cc(S(=O)(=O)N3CCC(C(=O)N4CCCCC4)CC3)cn2C)CC1             796
4    CCOC(CNCc1cc(C)c2[nH]c3ccccc3c2c1C)OCC             812
5  Cc1cc(OCC(=O)Nc2ccc(C(C)C)cc2)nc(N2CCN(c3ccccc3)CC2)n1             981

A: COc1ccc(C(=O)Nc2nc(-c3ccc4c(c3)NC(=O)C(C)O4)cs2)cc1 (configuration not stated)
B: Cc1cc(N2CCCC2)n2nc(CN3CCN(c4ccccc4)CC3)nc2n1
Compare reported RP-LC retention time values for A and B . Which is lower? Field: selected label. Fill in the label of the entry you choose.
B

A: COc1cccc(-c2noc(Cn3ccn(-c4cc(C)cc(C)c4)c(=O)c3=O)n2)c1OC
B: COc1ccc(N2CCN(S(=O)(=O)c3cc(-c4nc(C(C)C)cs4)cs3)CC2)cc1
C: CCC1CCCCN1CCCNC(=O)CCc1cc2cc(OC)ccc2[nH]c1=O (configuration not stated)
rank_up(items): orders items by reported RP-LC retention time in ascending numerical order. API: response body holds the labels in the requested order.
C, A, B
